This collection of values is drawn from patent US20250368645A1.

Target: human KOR (Homo sapiens, UniProt P41145)
Sequence (P41145 whole entry): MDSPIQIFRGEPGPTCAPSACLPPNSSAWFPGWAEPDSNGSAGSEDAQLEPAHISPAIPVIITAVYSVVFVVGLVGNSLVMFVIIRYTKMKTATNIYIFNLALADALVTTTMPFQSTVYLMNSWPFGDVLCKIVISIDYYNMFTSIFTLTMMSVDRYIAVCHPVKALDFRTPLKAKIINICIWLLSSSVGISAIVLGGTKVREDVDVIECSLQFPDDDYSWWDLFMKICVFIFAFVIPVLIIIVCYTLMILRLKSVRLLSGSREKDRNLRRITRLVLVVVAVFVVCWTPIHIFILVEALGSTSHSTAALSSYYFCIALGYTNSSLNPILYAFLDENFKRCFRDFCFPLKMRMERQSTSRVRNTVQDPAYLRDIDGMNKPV
Assay: GloSensor assay, Gi-mediated cAMP inhibition in HEK-293T cells transfected with human KOR
Assay type: cell-based
Conditions: given as Log IC50 (negative values); agonist activity, inhibition of FSK-stimulated cAMP; read-out: GloSensor Assay (Log IC50) KOR (converted)
Could you mark each record 1.0 if its IC50 falls strictly under 0.06 µM, and 0.0 if it equals or exceeds it?

Example entries and their recorded answers appear below.
INSERT INTO assay_data (compound_structure_string, assay_target, classification) VALUES
  ('Fc1cccc(-n2c[n+]3ccc4c5ccccc5[nH]c4c3c2-c2ccccc2Br)c1', 'human KOR (Homo sapiens, UniProt P41145)', 0.0),
  ('Fc1ccc(-n2c[n+]3ccc4c5ccccc5[nH]c4c3c2-c2ccc(Br)cc2)c(Cl)c1', 'human KOR (Homo sapiens, UniProt P41145)', 0.0),
  ('Brc1cccc(-n2c[n+]3ccc4c5ccccc5[nH]c4c3c2-c2ccccc2)c1', 'human KOR (Homo sapiens, UniProt P41145)', 0.0),
  ('Clc1ccc(-n2c[n+]3ccc4c5ccccc5[nH]c4c3c2-c2ccc(Br)cc2)cc1.[Cl-]', 'human KOR (Homo sapiens, UniProt P41145)', 1.0),
  ('Clc1ccc(-c2c3c4[nH]c5ccccc5c4cc[n+]3cn2-c2ccc(Cl)cc2)cc1.[Cl-]', 'human KOR (Homo sapiens, UniProt P41145)', 1.0);

Take the molecule `Clc1ccc(-n2c[n+]3ccc4c5ccccc5[nH]c4c3c2-c2cccc(Cl)c2)cc1` and say whether its IC50 is less than 0.06 µM.
0.0

Also `Clc1ccc(-n2c[n+]3ccc4c5ccccc5[nH]c4c3c2-c2ccccc2Br)cc1.[Cl-]` , if possible.
1.0

Also `Clc1ccc(-c2c3c4[nH]c5ccccc5c4cc[n+]3cn2-c2ccc(Br)cc2)cc1.[Cl-]` , if possible.
1.0

Also `Clc1ccc(-n2c[n+]3ccc4c5ccccc5[nH]c4c3c2-c2ccccc2Cl)cc1.[Cl-]` , if possible.
1.0

* * *

Target: UniProt:P41145
Assay: GloSensor assay, Gi-mediated cAMP inhibition in HEK-293T cells transfected with human KOR
Format: cell-based
Settings: given as Log IC50 (negative values); agonist activity, inhibition of FSK-stimulated cAMP; read-out: GloSensor Assay (Log IC50) KOR (converted)
metric: IC50 (nM)
Write the answer as a number in nM, unit excluded.

INSERT INTO assay_data (compound, val) VALUES
  ('COc1ccc(Cn2c[n+]3ccc4c5ccccc5[nH]c4c3c2-c2ccc(Cl)cc2)cc1 [9abe]', 75.9),
  ('Clc1ccccc1-n1c[n+]2ccc3c4ccccc4[nH]c3c2c1-c1ccc(Br)cc1 [8abj]', 251),
  ('Clc1cccc(-n2c[n+]3ccc4c5ccccc5[nH]c4c3c2-c2ccccc2Br)c1 [8acf]', 63.1);

Now examine the next entry.
// query IC50 value for entry COc1ccc(Cn2c[n+]3ccc4c5ccccc5[nH]c4c3c2-c2ccc(Br)cc2)cc1 [9aae]
3310

* * *

Let's look at some compounds and their measured IC50.
Target: human KOR (Homo sapiens, UniProt P41145)
Assay: GloSensor assay, Gi-mediated cAMP inhibition in HEK-293T cells transfected with human KOR
Assay type: cell-based
Conditions: given as Log IC50 (negative values); agonist activity, inhibition of FSK-stimulated cAMP; read-out: GloSensor Assay (Log IC50) KOR (converted)

INSERT INTO measurements (compound, assay_target, val) VALUES
  ('Clc1ccccc1-c1c2c3[nH]c4ccccc4c3cc[n+]2cn1-c1ccccc1 [8aea]', 'human KOR (Homo sapiens, UniProt P41145)', '> 10 µM');

// query IC50 value for entry Clc1ccc(-c2c3c4[nH]c5ccccc5c4cc[n+]3cn2-c2cccc(Cl)c2)cc1 [8adf]
> 10 µM

Also Brc1ccc(-c2c3c4[nH]c5ccccc5c4cc[n+]3cn2-c2ccc(Br)cc2)cc1 [8abb] , if possible.
> 10 µM

Also COC(=O)c1cc2c3ccccc3[nH]c2c2c(-c3ccc(Br)cc3)n(-c3ccc(F)cc3)c[n+]12 [8bbd] , if possible.
> 10 µM
